Target: Human immunodeficiency virus type 1 reverse transcriptase (Human immunodeficiency virus 1)
Assay: Inhibition of RNA-dependent DNA polymerase activity of HIV1 reverse transcriptase p66/p51 heterodimer using [8-3H]dGTP as substrate after 30 mins by liquid scintillation counting
The threshold is 600 nM. Values of Ki beneath it are tagged Condition met; values meeting or exceeding it are tagged Condition not met.

Reference set, count: 5
Please indicate whether the reported Ki of Cc1cc(C)cc(Cc2cc(Br)ccc2OCCn2ccc(=O)[nH]c2=O)c1 is strictly below 600 nM.
Condition not met

Follow-up item: Cc1cccc(C(=O)c2cc(Cl)ccc2OCCn2ccc(=O)[nH]c2=O)c1
Condition met

One more molecule: Cc1cc(C)cc(C(O)c2cc(Cl)ccc2OCCn2ccc(=O)[nH]c2=O)c1 (stereo unspecified)
Condition not met

Another molecule to look at: O=C(c1cc(F)cc(F)c1)c1cc(Cl)ccc1OCCn1ccc(=O)[nH]c1=O
Condition met

Field entry: Cc1cc(C)cc(C(=O)c2cc(Cl)ccc2OCCn2cc(C)c(=O)[nH]c2=O)c1
Condition not met

More entries:
Please let me know if Cc1cc(C)cc(C(=O)c2cc(Cl)ccc2OCCn2ccc(=O)[nH]c2=O)c1 shows Ki below 600 nM.
Condition met

Try the molecule Cc1cc(C)cc(C(=O)c2cc(Cl)ccc2OCCn2c(C)cc(=O)[nH]c2=O)c1
Condition not met

Would you kindly repeat that for O=C(c1cc(Cl)cc(Cl)c1)c1cc(Br)ccc1OCCn1ccc(=O)[nH]c1=O ?
Condition met

// next record Cc1cccc(Cc2cc(C)ccc2OCCn2ccc(=O)[nH]c2=O)c1
Condition not met

Also, Cc1ccc(OCCn2ccc(=O)[nH]c2=O)c(C(=O)c2ccccc2)c1 please.
Condition not met

Next record, please: O=C(c1cc(Cl)cc(Cl)c1)c1cc(Cl)ccc1OCCn1ccc(=O)[nH]c1=O
Condition not met

Try the molecule O=C(c1ccccc1)c1cc(Cl)ccc1OCCn1ccc(=O)[nH]c1=O
Condition not met

Next record, please: Cc1cc(C)cc(C(=O)c2cc(Cl)ccc2OCCCn2ccc(=O)[nH]c2=O)c1
Condition not met

====

Here the recorded selectivity ratio is given for each entry.
Test: in vitro
Settings: human, MT4 cells

// selectivity ratio lookup, key: O=C(c1ccccc1)c1cc(Br)ccc1OCCn1ccc(=O)[nH]c1=O
> 4630

And the next one, Cc1cccc(C(=O)c2cc(Cl)ccc2OCCn2ccc(=O)[nH]c2=O)c1 ?
> 6250

Others:
Returns the measured selectivity ratio for the input compound. Input: O=C(c1cc(Cl)cc(Cl)c1)c1cc(Br)ccc1OCCn1ccc(=O)[nH]c1=O
> 15200

Also O=C(c1cc(F)cc(F)c1)c1cc(Cl)ccc1OCCn1ccc(=O)[nH]c1=O ?
> 11400

====

Experiment: Solubility of the compound in 10% DMSO after overnight incubation by UV spectrometric analysis
Type: physicochemical
observable: solubility (µM)
Please reply with the bare figure in µM and do not write the unit itself.

Requested read-out: solubility. Entry: Cc1cc(C)cc(C(=O)c2cc(Cl)ccc2OCCn2ccc(=O)[nH]c2=O)c1
16.6

# repeat for Cc1cc(C)cc(C(=O)c2cc(Br)ccc2OCCn2ccc(=O)[nH]c2=O)c1
6.6

Please do the same for Cc1cc(C)cc(C(=O)c2cc(C)ccc2OCCn2ccc(=O)[nH]c2=O)c1 as well.
58.5

Check Cc1cc(C)cc(Cc2cc(C)ccc2OCCn2ccc(=O)[nH]c2=O)c1 too.
184

Please do the same for Cc1cc(C)cc(Cc2cc(Br)ccc2OCCn2ccc(=O)[nH]c2=O)c1 as well.
1.7

For Cc1cccc(Cc2cc(C)ccc2OCCn2ccc(=O)[nH]c2=O)c1 then?
199

Also Cc1ccc(OCCn2ccc(=O)[nH]c2=O)c(Cc2ccccc2)c1 ?
179

How about O=C(c1cc(F)cc(F)c1)c1cc(Cl)ccc1OCCn1ccc(=O)[nH]c1=O ?
17.6

New cases:
Item O=C(c1cc(Cl)cc(Cl)c1)c1cc(Cl)ccc1OCCn1ccc(=O)[nH]c1=O has what recorded solubility?
9.4

Please do the same for O=C(c1cc(Cl)cc(Cl)c1)c1cc(Br)ccc1OCCn1ccc(=O)[nH]c1=O as well.
1.5

Lookup Cc1cc(C)cc(Cc2cc(Cl)ccc2OCCn2ccc(=O)[nH]c2=O)c1
1.7
